Values compiled from ChEMBL document CHEMBL4007488.

tested on: Lipid bilayer; assay: Binding affinity to DMPG vesicles assessed as change in enthalpy by differential scanning calorimetric analysis
# if measured deltaH < -2 kcal/mol: t  # else: f

Past entries and their recorded results:
smiles.input	label.value
CCCCCCCCCCn1cc(CN2CCCCCC2)c2c(F)cccc21	f
CCCCCCCCn1cc(CN2CCC3(CC2)OCCO3)c2c(F)cccc21	f
CCCCCCCCn1cc(CN2CCC(C)CC2)c2ccc(OC)cc21	f
CCCCCCCCn1cc(CN2CCC3(CC2)OCCO3)c2ccc(F)cc21	t

For the next question, use this compound.
Consider the compound CCCCCCCCn1ccc2c(F)cccc21 . Is its deltaH strictly less than -2 kcal/mol?
t
